# Test system: Canis familiaris
# assayName: Minimum effective dose evaluated in mixed-breed or Beagle dogs after intravenous administration
# Assay type: functional
# measurementSetup: Canis lupus familiaris, read-out: MED
Each record is given YES if its reported minimal effective dose is strictly below 3 mg/kg. Records at or above 3 mg/kg are given NO.

molecule="CC(C)N(CCC(CCN1CCN2CCCC2C1)(C(N)=O)c1ccccc1)C(C)C (stereo unspecified)" assaysystem="Canis familiaris" classlabel=NO
molecule="CC(C)N(CCC(CCN1CCCCC1)(C(N)=O)c1ccc(F)cc1)C(C)C (stereo unspecified)" assaysystem="Canis familiaris" classlabel=NO
molecule="CC(C)N(CCC(CCN1CCCCC1)(C(N)=O)c1ccccc1Br)C(C)C (stereo unspecified)" assaysystem="Canis familiaris" classlabel=YES
molecule="CC(C)N(CCC(CCN1CC2CCC1CC2)(C(N)=O)c1ccccc1)C(C)C (stereo unspecified)" assaysystem="Canis familiaris" classlabel=NO
molecule="CC(C)N(CCC(CCN(C)C)(C(N)=O)c1ccc(C(C)(C)C)cc1)C(C)C (stereo unspecified)" assaysystem="Canis familiaris" classlabel=NO
molecule="CC(C)N(CCC(CCCN(C)C)(C(N)=O)c1ccccc1)C(C)C (stereo unspecified)" assaysystem="Canis familiaris" classlabel=NO
molecule="CC(C)N(CCC(CCN1CCCCC1)(C(N)=O)c1ccccc1F)C(C)C (stereo unspecified)" assaysystem="Canis familiaris" classlabel=YES
molecule="CC(C)N(CCC(CCN1CCCCC1)(C(N)=O)c1cccc(Cl)c1)C(C)C (stereo unspecified)" assaysystem="Canis familiaris" classlabel=YES
molecule="CC(C)N(CCC(CCN1C(C)CCCC1C)(C(N)=O)c1ccccc1F)C(C)C (stereo unspecified)" assaysystem="Canis familiaris" classlabel=NO
molecule="CC(C)N(CCC(CCN1CCCCC1)(C(N)=O)c1ccccc1Cl)C(C)C (stereo unspecified) [DISOBUTAMIDE]" assaysystem="Canis familiaris" classlabel=NO
molecule="CC(C)N(CCC(CCN1CCCCC1)(C(N)=O)c1ccc(F)cc1F)C(C)C (stereo unspecified)" assaysystem="Canis familiaris" classlabel=NO
molecule=Cc1ccc(C(CCN(C(C)C)C(C)C)(CCN(C(C)C)C(C)C)C(N)=O)cc1 assaysystem="Canis familiaris" classlabel=YES
molecule="CC(C)N(CCC(CCN(C)C1CCCCC1)(C(N)=O)c1ccccc1F)C(C)C (stereo unspecified)" assaysystem="Canis familiaris" classlabel=YES
molecule=CC(C)N(CCC(CCN(C(C)C)C(C)C)(C(N)=O)c1cccc(Cl)c1)C(C)C assaysystem="Canis familiaris" classlabel=YES
molecule="CC(C)N(CCC(CCCN1CCCCC1)(C(N)=O)c1ccccc1F)C(C)C (stereo unspecified)" assaysystem="Canis familiaris" classlabel=NO
molecule=COc1ccc(C(CCN(C(C)C)C(C)C)(CCN(C(C)C)C(C)C)C(N)=O)cc1 assaysystem="Canis familiaris" classlabel=NO
molecule="CC(C)N(CCC(CCN1CCOCC1)(C(N)=O)c1ccccc1)C(C)C (stereo unspecified)" assaysystem="Canis familiaris" classlabel=NO
molecule=CC(C)N(CCC(CCN(C(C)C)C(C)C)(C(N)=O)c1ccccc1)C(C)C assaysystem="Canis familiaris" classlabel=NO
molecule="CC(C)N(CCC(CCCN1CC2CCC(CC2)C1)(C(N)=O)c1ccccc1Cl)C(C)C (stereo unspecified)" assaysystem="Canis familiaris" classlabel=NO
